Where do the numbers come from? From the supplement of paper PMC7125110.

B1: glmS ribozyme (parent)
chain: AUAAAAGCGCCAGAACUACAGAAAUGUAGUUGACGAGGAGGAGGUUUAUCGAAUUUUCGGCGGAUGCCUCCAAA

Variants of: B1
Test: self-cleavage kobs at 640 uM GlcN6P; higher = faster cleavage; RNA array
Conditions: with glucosamine-6-phosphate
Variants at the floor of the assay were thinned out.
Each entry below carries its reported self-cleavage kobs at 640 uM GlcN6P.
Reported Property: self-cleavage kobs at 640 uM GlcN6P (s⁻¹)

Chain Sequence	Unit Of Measure	Comparator	Result
AUAAAAGCGGCAGAACUACAGAAAUGUAGUUGACGAGGAGGAGGUUUAACGAAUUUUCGGCGGAUGCCUCCAAA [C10G U49A]	s⁻¹	<	1e-05
AUAAAAGCGCCAGAACUACAGAAAUGUAGUUGAGGAGGAGGAGGUUUAUCGAAUUUUCGGCGGUUGCCUCCAAA [C34G A64U]	s⁻¹	<	1e-05
AUAAAAGCGCCAGAACUACAGAAAUGUAGUUGACGAGGAGGAGGUUUAUCGGAUUUUAGGCGCAUGCGUCCAAA [A52G C58A G63C C68G]	s⁻¹	=	0.00011
AUAAAAGCGCCAGAACUACAGAAAUGUAGUUGACGAGGAGGAGGUUUAUCGAACCUUCGGCGGAUGCCUCCAAA [U54C U55C]	s⁻¹	=	0.00279
AUAAAAGCACCAGAACUACAGAAAUGUAAUUGACGAGGAGGGGGUUUCUCGAAUUUUCGGCGGAAGCCUCCAAA [G9A G29A A42G A48C U65A]	s⁻¹	<	1e-05
AUAAAAGCGCCAGAACUACAGAAAUUUAGUUGACGAGGAGGAGGUUUAUCGAAUUUUCGGCGGAGGCCUCCAAA [G26U U65G]	s⁻¹	=	0.000733
AUAAAAGCGCCAGAACUACAGAAAUGUAGUUGACGAGGAUGAGGUUUAUCGAAUUUUCGGGGGAUGCCUCCAAA [G40U C61G]	s⁻¹	<	1e-05
AUAAAAGCGCCAGAACUACAGAAAUGUAGUUGGCGAGGAGGAGGUUUAUCGAAUUUUCGCCGGAUGCGUCCAAA [A33G G60C C68G]	s⁻¹	<	1e-05
AUAAAAGCGCCAGAACUACAGAAAUGUAGUUGACGAUGAGCAGGUUUAUCGAAUUUUCGGCGGAUGCCUCCAAA [G37U G41C]	s⁻¹	<	1e-05
AUAAAAGCGCCGGAACUACAGAAAUGUAGUUGACGAGGAGGAGGUUGAUCGAAUUUUCGGCGGAUGCCUCCAAA [A12G U47G]	s⁻¹	=	0.000127
AUAAAAGCGCCAGAACUACAGAAAUGUAGUUGACGAGGAGAAGGUUUAUCGAAUUUUGGGCGGAUGCCUCCAAA [G41A C58G]	s⁻¹	<	1e-05
AUAAAAGCGCCGGAACUACAGAAAUGUAGUUGACGAGGAGGAGGUUUAUCGUAUUUUCGGCGGAUGCCUCCAAA [A12G A52U]	s⁻¹	<	1e-05
AUAAAAGCGCCAGAACUACAGAAAUGUAGUUGACGAGGAGGAGGUUUAUCGAAUUUUCGGCGGCCGCCUCCAAA [A64C U65C]	s⁻¹	<	1e-05
AUAAAAGCGCCAGAACUACAGAAAUGUAGUUAACGAGGAGGAGGUUUAUCGAAUUUACGGCGGAUGCCUGCAAA [G32A U57A C70G]	s⁻¹	=	0.000649
AUAAAAGCGCUAGAACUACAGAAAUGUAGUUGACGAGGAGGAGGUUUAUCGAAUGUUCGGCGGAUGCCUGCAAA [C11U U55G C70G]	s⁻¹	=	7.75e-05
AUAAAAGCGCCAGAACUACAGAAAUGUAGUUGACGAGGAGGAGGUAUAUCGAUUUUUCGGCGGAUGCCUCCAAA [U46A A53U]	s⁻¹	=	0.000394
AUAAAAGCGCUAGAACUACAGAAAUGUAGUUGACGAGGAGGAGGUUUAUCGAAUUCUCGGCGGAUGCCUCCAAA [C11U U56C]	s⁻¹	=	4.51e-05
AUAAAAGCGCCAGAACUACAGAAAUGUAGUUGACGAGGAGGAGAUUUAUCGAAAUUUCGGCGGAUGCCUCCAAA [G44A U54A]	s⁻¹	=	0.000132
AUAAAAGCGCCAGAACUACAGAAAUGUAGUUGAGGAGGAGGAGGUUUAUCGAAUUUUCGGCGGUUGUCUCCAAA [C34G A64U C67U]	s⁻¹	<	1e-05
AUAAAAGCGCCAGAACUACAGAAAUGUAGUUGACGAGGAGGAGGUUUAUCCAAUAUUCGGCGGAUGCCUCCAAA [G51C U55A]	s⁻¹	<	1e-05
AUAAAAGCGCCAGAACUACAGAAAUGUAGUUGACGAGGUGGAGGUUUAUCGAAUUUUCGGCGGAUGCCUCAAAA [A39U C71A]	s⁻¹	=	0.000728
AUAAAAGCGCCAGAAGUACAGAAAUGUAGUUGACGAGGAGGAGGUUUAUCGAAUUUUCCGCGGAUGCCUCCAAA [C16G G59C]	s⁻¹	<	1e-05
AUAAAUGCGCCAGAACUACAGAAAUGUAGUUGGCGAGGAGGAGGUUUAUCGAAAUUUCGGCGGAUGCCUCCAAA [A6U A33G U54A]	s⁻¹	<	1e-05
AUAAAAGCGCCAGAACUACAGAAAUGUAGUUGACGAGGAGGAGGUUUAUCGAAUUUUCGGCGGAUCCCUGCAAA [G66C C70G]	s⁻¹	=	6.38e-05
AUAAAAGCGUCAGAACUACAGAAAUGUAAUUGACGAGGAGGAGGUUUAUCGAAUUUUCGGAAGAUGCCUUCAAA [C10U G29A C61A G62A C70U]	s⁻¹	=	7.67e-05
AUAAAAGCGUCAGAACUACAGAAAUGUAGUUGACGAGCAAGAGGUUUAUCGAAUGUUCGGCGGAUGCCUCCAAA [C10U G38C G40A U55G]	s⁻¹	<	1e-05
AUAAACGCGCCAGAACUACAGAAAUGUAGUUGACGAGGAGGAGGUUUAUCGAAUUUUCGGCGGAUGCCUUCAAA [A6C C70U]	s⁻¹	=	3.3e-05
AUAAAAGCGCCAGAACUACAGAAAUGUAGUUGUCGAGGAGGAAGUUUAUCGAAUUUUCGGCGGAUGCCUCCAAA [A33U G43A]	s⁻¹	<	1e-05
AUAAAAGCGCCAGAACUACAGAAAUGUAGUUGACGAGGUGGAGGGUUAUCGAAUUUUCGGCGGAUGCCUCCAAA [A39U U45G]	s⁻¹	=	0.00165
AUAAAAGCGCCAGAACUACAGAAAUGUAGUUGACGAGGAGUAGUCUUAUCGAAUUUUCGGCGGAUGCCUCCAAA [G41U G44U U45C]	s⁻¹	<	1e-05
AUAAAAGCGCCAGAACUACAGAAAUGUAGUUGACGAGGAGGAGGUUUAUCGACUUUUCGGCGGAUGCCUGCAAA [A53C C70G]	s⁻¹	=	5.26e-05
AUAAAAGCGCCAAAACUACAGAAAUGUAGUUGACGAGGAGGCGGUUUAUCCAAUUUUCGGAGGAUGCCUCCAAA [G13A A42C G51C C61A]	s⁻¹	<	1e-05
AUAAAAGCGUCAGAACUACAGAAAUGUAGUUGUCGAGGAGGAGGUUUAUCGAAUUUUCGGCUGAUGCCUCAAAA [C10U A33U G62U C71A]	s⁻¹	<	1e-05
AUAAAAGCGCCAGAACUACAGAAAUGUAGUUGACGAGGAGGAGGUUUAUCGAAUUUUUGGCGGAUGCCUGCAAA [C58U C70G]	s⁻¹	=	2.38e-05
AUAAAAGCGCCAGAACUACAGAAAUGUAGUUGAAGAGGAGGGGGUUUAUCGAAUUUUCGGCGGAUGCCUCCAAA [C34A A42G]	s⁻¹	<	1e-05
AUAAAAGCGCCAGAACUACAGAAAUGUAGUUGACGAGGAGGAGGUUUAUCGAGUUUUCGGCGGCUGCCUCCAAA [A53G A64C]	s⁻¹	=	5.95e-05
AUAAAAGCGCCAGAACUACAGAAAUGUAGUUGACGAGGUCGAGGUUUAUCGAAUUUUCGGCGGAUGCCUCCAAA [A39U G40C]	s⁻¹	=	0.00089
AUAAAAGCGCCAGGACUACAGAAAUGUAGUUGACGAGGAGGAGGUUUAUCGAAUUUUCGGCGGUUGCCUCCAAA [A14G A64U]	s⁻¹	=	7.9e-05
AUAAAAGCGCCAGCACUACAGAAAUGUAGUUGCCGAGGAGGAGGUUUAUCGAAUUUUCGGCGGAUGCCUCCAAA [A14C A33C]	s⁻¹	<	1e-05
AUAAAAGUGCCAGAACUACAGAAAUGUAGUUGACGAGGAGGUGGUUUAUCGAAUUUUCGGCGGAUGCCUCCAAA [C8U A42U]	s⁻¹	<	1e-05
AUAAAAGCGCCAGAACUACAGAAAUGUAGUUGACGAGGAAGAGGUUUAUCGAAUUUUCGGCGGAGGCCUCCAAA [G40A U65G]	s⁻¹	=	0.000421
AUAAAAGCGCGAGAACUACAGAAAUGUAGUUGACGCGGAGCAGGUUUAUCGAAUUUUCGACGGAUGCCUCCAAA [C11G A36C G41C G60A]	s⁻¹	<	1e-05
AUAAAAGCGCCAGAACUACAGAAAUGUAGUUGACGAGGAGGAGGUUUAUCAAAUUUUCGGCGGAUGCCGCCAAA [G51A U69G]	s⁻¹	=	6.08e-05
AUAAAAGCGCCCGAACUACAGAAAUGUAGUUGACGAGGAAGAGGUUUAUCGAAUUUUCGGCGGAAGCCUCCAAA [A12C G40A U65A]	s⁻¹	=	9.15e-05
AUAAAAGCUCCAGACCUACAGAAAUGUAGUUGACGAGGAGGAGGUUUAUCGAAUUUUCGGCGGAUGUCUCCAAA [G9U A15C C67U]	s⁻¹	<	1e-05
AUAAAUGCGCCAGAACUACAGAAAUGUAGUUGACGCGGAGGAGGUUUAUCCAAUUUUCGGCGGAUGCCUCCAAA [A6U A36C G51C]	s⁻¹	<	1e-05
